# Test system: A. baumannii strain AB5
# PROCEDURE_DETAILS: MIC by broth micro-dilution, clinical strain AB5
# Assay type: cell-based, Acinetobacter baumannii
# RUN_PARAMETERS: Acinetobacter baumannii; strain AB5, LB broth; read-out: susceptibilities to antibiotics (MICs)
METRIC: MIC

INSERT INTO measurements (molecule, system, reported_result) VALUES
  ('CC(C)(O/N=C(\C(=O)N[C@@H]1C(=O)N2C(C(=O)[O-])=C(C[n+]3ccccc3)CS[C@H]12)c1csc(N)n1)C(=O)O', 'A. baumannii strain AB5', '≥ 64 µg/mL'),
  ('CC1(C)S[C@@H]2[C@H](NC(=O)[C@H](N)c3ccccc3)C(=O)N2[C@H]1C(=O)O', 'A. baumannii strain AB5', '≥ 512 µg/mL'),
  ('CCN1CCN(C(=O)N[C@@H](C(=O)N[C@@H]2C(=O)N3[C@@H]2SC(C)(C)[C@@H]3C(=O)O)c2ccccc2)C(=O)C1=O', 'A. baumannii strain AB5', '≥ 128 µg/mL'),
  ('CO[C@@]1(NC(=O)CSCC#N)C(=O)N2C(C(=O)O)=C(CSc3nnnn3C)CS[C@@H]21', 'A. baumannii strain AB5', '≥ 64 µg/mL');

Record MIC for all entries; do not skip any.
1. CO/N=C(\C(=O)N[C@@H]1C(=O)N2C(C(=O)[O-])=C(C[N+]3(C)CCCC3)CS[C@H]12)c1csc(N)n1 [Cefepime]
2. CO/N=C(\C(=O)N[C@@H]1C(=O)N2C(C(=O)O)=C(CSc3nc(=O)c(=O)[nH]n3C)CS[C@H]12)c1csc(N)n1
3. CN(C)[C@@H]1C(O)=C(C(N)=O)C(=O)[C@@]2(O)C(O)=C3C(=O)c4c(O)cccc4[C@@](C)(O)[C@H]3C[C@@H]12
4. Cc1nnc(SCC2=C(C(=O)O)N3C(=O)[C@@H](NC(=O)Cn4cnnn4)[C@H]3SC2)s1
5. C[C@@H](O)[C@H]1C(=O)N2C(C(=O)O)=C(S[C@@H]3CN[C@H](C(=O)N(C)C)C3)[C@H](C)[C@H]12

["≥ 64 µg/mL", "≥ 64 µg/mL", "≥ 512 µg/mL", "≥ 64 µg/mL", "≥ 16 µg/mL"]

###

Task for the reader: assign each of the following molecules its reported MIC.
# Tested on: A. baumannii strain AB6
# PROCEDURE_DETAILS: MIC by broth micro-dilution, clinical strain AB6
# Assay type: cell-based, Acinetobacter baumannii
# RUN_PARAMETERS: Acinetobacter baumannii; strain AB6, LB broth; read-out: susceptibilities to antibiotics (MICs)
# From the text: Precisely, five strains of clinical A. baumannii, named AB1, AB2, AB4, AB5, AB6, are isolated from patients in Kaohsiung Medical University Hospital, 1600-bed tertiary referral medical center in Taiwan, wherein each of strains is from different clones by genotyping and collected from different samples, for example, sputum, wound pus, blood, pleural fluid, and bronchial washing. […]

Worked cases, answers included:
INSERT INTO assay_data (molecule, metric, reported_result) VALUES
  ('Cc1nnc(SCC2=C(C(=O)O)N3C(=O)[C@@H](NC(=O)Cn4cnnn4)[C@H]3SC2)s1 [Cefazolin]', 'MIC', '≥ 64 µg/mL'),
  ('C[C@@H](O)[C@H]1C(=O)N2C(C(=O)O)=C(S[C@@H]3CN[C@H](C(=O)N(C)C)C3)[C@H](C)[C@H]12 [Meropenem]', 'MIC', '≥ 16 µg/mL'),
  ('CO[C@@]1(NC(=O)CSCC#N)C(=O)N2C(C(=O)O)=C(CSc3nnnn3C)CS[C@@H]21 [Cefmetazole]', 'MIC', '≥ 64 µg/mL');

Please give MIC for each item listed below.
1. CC(C)(O/N=C(\C(=O)N[C@@H]1C(=O)N2C(C(=O)[O-])=C(C[n+]3ccccc3)CS[C@H]12)c1csc(N)n1)C(=O)O [Ceftazidime]
2. CN(C)[C@@H]1C(O)=C(C(N)=O)C(=O)[C@@]2(O)C(O)=C3C(=O)c4c(O)cccc4[C@@](C)(O)[C@H]3C[C@@H]12 [Tetracycline]
3. CO/N=C(\C(=O)N[C@@H]1C(=O)N2C(C(=O)O)=C(CSc3nc(=O)c(=O)[nH]n3C)CS[C@H]12)c1csc(N)n1 [Ceftriaxone]
4. CC1(C)S[C@@H]2[C@H](NC(=O)[C@H](N)c3ccccc3)C(=O)N2[C@H]1C(=O)O [Ampicillin]
5. CCN1CCN(C(=O)N[C@@H](C(=O)N[C@@H]2C(=O)N3[C@@H]2SC(C)(C)[C@@H]3C(=O)O)c2ccccc2)C(=O)C1=O [Piperacillin]
6. CO/N=C(\C(=O)N[C@@H]1C(=O)N2C(C(=O)[O-])=C(C[N+]3(C)CCCC3)CS[C@H]12)c1csc(N)n1 [Cefepime]

1. ≥ 64 µg/mL
2. ≥ 512 µg/mL
3. ≥ 64 µg/mL
4. ≥ 512 µg/mL
5. ≥ 128 µg/mL
6. ≥ 64 µg/mL
